The origin of these recorded values is PubChem BioAssay (EPA / NIEHS).

test: CEETOX_H295R_ESTRADIOL: CeeTox H295R High-throughput Steroidogenesis Assay for Estradiol (AID 2283440); conditions: actives raise or lower the signal;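 also: estradiol secreted into medium quantified by LC-MS/MS after dansyl derivatisation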
The source made the active and inactive calls. The calls were made as follows: active = hit-call score of the fitted dose curve at least 0.9, where 1 is the maximum; inactive = score below 0.9.
A correct response names exactly one class from active, inactive

Use these answered entries as a reference point.
c1ccc2c(c1)Nc1ccccc1S2 inactive
Oc1ccc(I)cc1 inactive
CCOP(=S)(OCC)SCn1nnc2ccccc2c1=O inactive

For `Nc1ccc2ccccc2c1` , which call appears in the assay record?
inactive

Similarly, `CC(C)Nc1ccc(Nc2ccccc2)cc1` ?
inactive

What about this compound? `c1ccc(OP(Oc2ccccc2)Oc2ccccc2)cc1`
inactive

Let us now turn to `N#Cc1c(-c2ccc(Cl)cc2)[nH]c(C(F)(F)F)c1Br`
inactive

Repeat with `CCCCOCCOP(=O)(OCCOCCCC)OCCOCCCC`
inactive
